Test system: 171881-019-R-J1-PDC multicell spheroid viability;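 further: spheroids exposed to the agents for seven days before readout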
Method: Anticancer human tumor 171881-019-R-J1-PDC patient-derived invasive breast carcinoma cell line growth inhibition [IpAb]; active means viability on the fitted dose curve at most 10% of control; inactive means the rest
Test parameters: second compound 1 µM; first compound 0.1 µM
Lab note: assign the record to one of active, inactive

Use the examples below as a reference point.
// return assay outcome for CC1(C)CCC(CN2CCN(c3ccc(C(=O)NS(=O)(=O)c4ccc(NCC5CCOCC5)c([N+](=O)[O-])c4)c(Oc4cnc5[nH]ccc5c4)c3)CC2)=C(c2ccc(Cl)cc2)C1 + CCN1CCN(Cc2ccc(Nc3ncc(F)c(-c4cc(F)c5nc(C)n(C(C)C)c5c4)n3)nc2)CC1
inactive

// return assay outcome for Cn1ncc(Cl)c1-c1cc(C(=O)NC(CN)Cc2cccc(F)c2)sc1Cl (stereo not given) + CCN1CCN(Cc2ccc(Nc3ncc(F)c(-c4cc(F)c5nc(C)n(C(C)C)c5c4)n3)nc2)CC1
inactive

Continuing:
// return assay outcome for CC(C)n1nc(-c2ccc3oc(N)nc3c2)c2c(N)ncnc21 + CC(C)NCC(C(=O)N1CCN(c2ncnc3c2C(C)CC3O)CC1)c1ccc(Cl)cc1
active

// return assay outcome for CCCS(=O)(=O)Nc1ccc(F)c(C(=O)c2c[nH]c3ncc(-c4ccc(Cl)cc4)cc23)c1F + CC(C)NCC(C(=O)N1CCN(c2ncnc3c2C(C)CC3O)CC1)c1ccc(Cl)cc1
inactive

// return assay outcome for Cn1ncc(Cl)c1-c1cc(C(=O)NC(CN)Cc2cccc(F)c2)sc1Cl (stereo not given) + CC(C)NCC(C(=O)N1CCN(c2ncnc3c2C(C)CC3O)CC1)c1ccc(Cl)cc1
inactive

// return assay outcome for CCCS(=O)(=O)Nc1ccc(F)c(C(=O)c2c[nH]c3ncc(-c4ccc(Cl)cc4)cc23)c1F + CCN1CCN(Cc2ccc(Nc3ncc(F)c(-c4cc(F)c5nc(C)n(C(C)C)c5c4)n3)nc2)CC1
inactive

// return assay outcome for CC(C)n1nc(-c2ccc3oc(N)nc3c2)c2c(N)ncnc21 + CCN1CCN(Cc2ccc(Nc3ncc(F)c(-c4cc(F)c5nc(C)n(C(C)C)c5c4)n3)nc2)CC1
inactive
